Value source: ChEMBL document CHEMBL1201862

ASSAYED_SYSTEM: Cytochrome P450 2D6 (Homo sapiens);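 further: CYP2D6 member of a cytochrome P450 panel assay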
Sequence (P10635 whole entry): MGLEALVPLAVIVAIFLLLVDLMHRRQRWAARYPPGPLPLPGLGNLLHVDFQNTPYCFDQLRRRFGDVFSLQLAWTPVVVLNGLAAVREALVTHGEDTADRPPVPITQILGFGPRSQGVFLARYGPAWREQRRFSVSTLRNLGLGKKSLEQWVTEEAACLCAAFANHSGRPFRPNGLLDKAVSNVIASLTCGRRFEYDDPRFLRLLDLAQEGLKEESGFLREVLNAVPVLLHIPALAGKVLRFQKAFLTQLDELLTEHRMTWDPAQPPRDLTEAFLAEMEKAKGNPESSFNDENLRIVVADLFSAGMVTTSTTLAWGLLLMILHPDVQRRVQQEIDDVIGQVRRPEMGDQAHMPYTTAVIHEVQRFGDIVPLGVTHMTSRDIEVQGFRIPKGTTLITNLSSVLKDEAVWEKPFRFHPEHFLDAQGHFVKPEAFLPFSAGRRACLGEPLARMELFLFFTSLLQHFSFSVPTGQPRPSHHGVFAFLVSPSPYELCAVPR
RESULT_TYPE: AC50

MOLECULE	RESULT_TYPE	OBSERVED_RESULT
CCCC(=O)Nc1ccc2nc(SCC(=O)Nc3ccc(N4CCOCC4)c(Cl)c3)sc2c1	AC50	10 µM (inconclusive)
COC(=O)[C@@]1(Cc2ccc(F)cc2)[C@H]2c3cc(C(=O)N(C)C)n(Cc4cc(C)n(C)n4)c3C[C@H]2CN1C(=O)c1ccccc1	AC50	39.8 µM (inconclusive)
COC(=O)[C@@]1(Cc2ccc(OC)cc2)[C@H]2c3cc(C(=O)N4CCCC4)n(CCc4ccc(O)c(OC)c4)c3C[C@H]2CN1C(=O)c1ccccc1	AC50	39.8 µM (inconclusive)
C1=Cc2ccccc2C1.C=C(C)c1ccccc1.[N-]=[N+]=Nc1ccccc1	AC50	3.98 µM (inconclusive)
CC(=O)O[C@@H]1CN2CCC1CC2 [(S)-ACECLIDINE]	AC50	15.8 µM (inconclusive)

Kindly consider the entry below.
Recorded result, "COc1ccc(NC(=O)CSc2nnc(CNC(=O)c3ccco3)n2-c2ccccc2OC)cc1" , AC50: 35.5 µM (inconclusive)

###

ASSAYED_SYSTEM: High affinity choline transporter 1 (Homo sapiens, UniProt Q9GZV3)
Sequence (Q9GZV3 whole entry): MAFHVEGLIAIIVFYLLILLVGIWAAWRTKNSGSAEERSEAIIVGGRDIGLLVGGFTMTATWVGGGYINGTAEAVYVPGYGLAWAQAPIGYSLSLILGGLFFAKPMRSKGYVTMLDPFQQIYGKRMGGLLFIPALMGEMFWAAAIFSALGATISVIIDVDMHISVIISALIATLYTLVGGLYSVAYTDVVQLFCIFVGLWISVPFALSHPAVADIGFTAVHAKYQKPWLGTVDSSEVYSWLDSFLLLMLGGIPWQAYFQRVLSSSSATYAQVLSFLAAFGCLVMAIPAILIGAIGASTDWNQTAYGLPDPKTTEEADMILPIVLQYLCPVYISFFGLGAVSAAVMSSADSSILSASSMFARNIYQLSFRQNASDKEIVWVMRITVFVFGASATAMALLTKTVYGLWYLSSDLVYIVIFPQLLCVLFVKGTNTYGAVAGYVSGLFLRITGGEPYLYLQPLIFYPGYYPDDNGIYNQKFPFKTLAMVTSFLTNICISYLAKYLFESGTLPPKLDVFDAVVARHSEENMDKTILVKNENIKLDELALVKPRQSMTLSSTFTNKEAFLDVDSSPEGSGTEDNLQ
MEASUREMENT_DESCRIPTION: human choline transporter blockers, potency – cell-based, 5-point CRC, membrane potential dye, dose response (AID 504840)
Assay type: functional
Activity calls are given as the source filed them.
RESULT_TYPE: IC50

The following compounds have reported results that may help.
1) O=C(Cn1ncc2c3ccccc3n(Cc3ccccc3)c2c1=O)NCCN1CCOCC1 11.2 µM (active)
2) CCn1cc(/C=C(\NC(=O)c2ccccc2F)C(=O)NCCCn2ccnc2)c2ccccc21 14.5 µM (active)
3) O=C(OCc1nc(O)c2sccc2n1)c1ccc(Cl)s1 12.6 µM (active)
4) CN(CCC#N)C(=O)COC(=O)c1ccccc1C(=O)c1ccc(Cl)c([N+](=O)[O-])c1 7.81 µM (active)
5) Oc1c(Br)cc(Br)cc1/C=N/Cc1ccccc1 9.73 µM (active)

Hi, could you look up IC50 for each item in my list?
1. COc1ccc(C2=Nn3c(nnc3C3CCCCC3)SC2)cc1OC
2. O=c1cc(-c2ccccc2)c2c(O)cc(O)cc2o1

RESULT:
1.74 µM (active)
13.7 µM (active)

Recorded result, "CN1C(=O)/C(=N\c2ccc(O)cc2)c2c3ccccc3c(O)c3cccc1c23" , IC50: 12.3 µM (active)
